meta.source: patent US10647700B2

biological target: UniProt Q15910; experiment: E-cadherin promoter luciferase reporter gene primary screening in 293T cells; assay type: cell-based; details: compound 10 μM, 293T cells treated for 24 hours, Dual-Glo luciferase
reported_endpoint: 10 μM relative fluorescence intensity

{"smi": "CCN(C(=O)C1CCCC1)c1cc(C(N)=O)cc(C(=O)NCc2c(C)cc(C)[nH]c2=O)c1C", "tested_on": "UniProt Q15910", "10 μM relative fluorescence intensity": 109.72}
{"smi": "CCN(C(=O)C1CCCC1)c1cc(-c2ccc(CC(=O)N3CCOCC3)cc2)cc(C(=O)NCc2c(C)cc(C)[nH]c2=O)c1C", "tested_on": "UniProt Q15910", "10 μM relative fluorescence intensity": 242}
{"smi": "CCN(C(=O)C1CCCC1)c1cc(C#N)cc(C(=O)NCc2c(C)cc(C)[nH]c2=O)c1C", "tested_on": "UniProt Q15910", "10 μM relative fluorescence intensity": 224.69}

P: CCN(C(=O)C1CCCC1)c1cc(-c2ccnc(N3CCN(C)CC3)c2)cc(C(=O)NCc2c(C)cc(C)[nH]c2=O)c1C
Q: CCN(C(=O)C1CCCC1)c1cc(-c2ccc(Oc3ccccc3)cc2)cc(C(=O)NCc2c(C)cc(C)[nH]c2=O)c1C
// pick min by 10 μM relative fluorescence intensity: P , Q // caller expects the label of the chosen entry Q
(Q: 183.38, P: 303)

I: CCN(C(=O)C1CCCC1)c1cc(-c2ccc(C(C)=O)s2)cc(C(=O)NCc2c(C)cc(C)[nH]c2=O)c1C
II: CCN1CCN(Cc2ccc(-c3cc(C(=O)NCc4c(C)cc(C)[nH]c4=O)c(C)c(N(CC)C(=O)C4CCCC4)c3)cc2)CC1
// pick min by 10 μM relative fluorescence intensity: I , II // caller expects the label of the chosen entry I

P: CCN(C(=O)C1CCCC1)c1cc(-c2ccc(C(=O)N3CCOCC3)cc2)cc(C(=O)NCc2c(C)cc(C)[nH]c2=O)c1C
Q: CCN(C(=O)C1CCCC1)c1cc(-c2ccc(CN3CCNC[C@H]3CO)cc2)cc(C(=O)NCc2c(C)cc(C)[nH]c2=O)c1C
R: CCN(C(=O)C1CCCC1)c1cc(-c2ccc(N3CCN(C(C)C)CC3)nc2)cc(C(=O)NCc2c(C)cc(C)[nH]c2=O)c1C
# ascending order, key=10 μM relative fluorescence intensity Respond with an ordered listing of the labels, as requested. Q, P, R
(Q: 123.19, P: 227, R: 423)

###

molecular target: EZH2 (Homo sapiens (Human), UniProt Q15910); experiment: E-cadherin promoter luciferase reporter gene primary screening in 293T cells; type: cell-based; conditions: compound 10 μM, 293T cells treated for 24 hours, Dual-Glo luciferase
Sequence (Q15910 whole entry): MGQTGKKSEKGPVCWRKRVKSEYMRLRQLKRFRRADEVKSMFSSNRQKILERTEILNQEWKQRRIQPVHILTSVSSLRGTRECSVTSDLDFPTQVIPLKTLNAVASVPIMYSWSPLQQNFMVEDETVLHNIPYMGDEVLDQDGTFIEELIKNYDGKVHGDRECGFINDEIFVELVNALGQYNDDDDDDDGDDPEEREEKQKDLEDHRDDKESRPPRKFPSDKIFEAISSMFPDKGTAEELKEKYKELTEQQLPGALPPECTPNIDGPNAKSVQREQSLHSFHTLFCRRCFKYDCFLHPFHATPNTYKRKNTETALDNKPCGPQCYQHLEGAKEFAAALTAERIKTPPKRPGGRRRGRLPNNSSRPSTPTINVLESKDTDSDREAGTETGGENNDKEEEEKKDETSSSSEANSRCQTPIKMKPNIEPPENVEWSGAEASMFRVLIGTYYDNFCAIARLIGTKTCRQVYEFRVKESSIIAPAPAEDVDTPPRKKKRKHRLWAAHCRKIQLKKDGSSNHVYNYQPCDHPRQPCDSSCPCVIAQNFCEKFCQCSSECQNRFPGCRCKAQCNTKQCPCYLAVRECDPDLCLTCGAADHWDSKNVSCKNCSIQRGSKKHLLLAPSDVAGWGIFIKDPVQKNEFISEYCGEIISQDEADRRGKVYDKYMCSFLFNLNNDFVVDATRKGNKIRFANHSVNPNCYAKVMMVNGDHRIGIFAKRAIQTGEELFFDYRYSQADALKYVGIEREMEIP
Sequence (O75530 whole entry partner): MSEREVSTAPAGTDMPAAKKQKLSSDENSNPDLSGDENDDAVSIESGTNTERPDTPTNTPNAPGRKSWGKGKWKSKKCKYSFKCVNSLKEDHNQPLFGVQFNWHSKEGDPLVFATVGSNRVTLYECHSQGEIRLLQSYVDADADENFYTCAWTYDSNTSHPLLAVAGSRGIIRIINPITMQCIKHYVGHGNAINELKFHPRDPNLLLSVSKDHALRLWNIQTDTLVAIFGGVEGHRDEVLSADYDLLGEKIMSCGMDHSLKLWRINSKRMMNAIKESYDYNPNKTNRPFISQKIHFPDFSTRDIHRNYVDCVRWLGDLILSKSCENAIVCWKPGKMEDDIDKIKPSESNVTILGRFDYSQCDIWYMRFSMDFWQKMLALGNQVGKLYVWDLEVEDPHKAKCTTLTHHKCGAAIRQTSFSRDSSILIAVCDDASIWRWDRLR
Sequence (Q15022 whole entry partner): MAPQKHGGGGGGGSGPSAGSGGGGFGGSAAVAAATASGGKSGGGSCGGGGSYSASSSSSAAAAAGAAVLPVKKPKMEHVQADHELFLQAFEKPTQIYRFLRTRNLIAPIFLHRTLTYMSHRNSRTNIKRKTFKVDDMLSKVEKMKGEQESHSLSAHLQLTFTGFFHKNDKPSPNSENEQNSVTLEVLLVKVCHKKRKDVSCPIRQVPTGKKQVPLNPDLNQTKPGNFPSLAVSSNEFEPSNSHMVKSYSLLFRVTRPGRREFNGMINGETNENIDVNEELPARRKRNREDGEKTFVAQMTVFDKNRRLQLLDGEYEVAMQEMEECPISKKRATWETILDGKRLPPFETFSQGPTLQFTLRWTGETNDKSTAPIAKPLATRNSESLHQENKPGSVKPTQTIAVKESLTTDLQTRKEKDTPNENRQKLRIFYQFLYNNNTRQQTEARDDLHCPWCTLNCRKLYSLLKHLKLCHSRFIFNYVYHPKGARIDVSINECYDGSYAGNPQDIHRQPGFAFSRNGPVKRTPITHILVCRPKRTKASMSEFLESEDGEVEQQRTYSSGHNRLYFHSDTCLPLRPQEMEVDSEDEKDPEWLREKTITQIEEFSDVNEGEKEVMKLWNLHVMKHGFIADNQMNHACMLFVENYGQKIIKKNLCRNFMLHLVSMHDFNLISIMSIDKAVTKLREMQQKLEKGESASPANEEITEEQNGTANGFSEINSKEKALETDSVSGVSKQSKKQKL
Sequence (Q09028 whole entry partner): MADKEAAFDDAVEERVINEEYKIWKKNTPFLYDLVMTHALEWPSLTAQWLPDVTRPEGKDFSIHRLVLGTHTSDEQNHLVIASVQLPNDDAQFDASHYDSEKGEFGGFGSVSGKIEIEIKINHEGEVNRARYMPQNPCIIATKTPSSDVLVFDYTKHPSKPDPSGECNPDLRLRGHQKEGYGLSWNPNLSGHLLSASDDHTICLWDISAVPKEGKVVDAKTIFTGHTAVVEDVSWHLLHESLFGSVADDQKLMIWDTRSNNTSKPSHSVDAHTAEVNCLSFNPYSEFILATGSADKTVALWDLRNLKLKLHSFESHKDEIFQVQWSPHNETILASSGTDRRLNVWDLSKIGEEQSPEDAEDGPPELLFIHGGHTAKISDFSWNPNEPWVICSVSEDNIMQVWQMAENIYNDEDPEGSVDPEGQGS
reported_endpoint: 10 μM relative fluorescence intensity

Some molecules with recorded 10 μM relative fluorescence intensity:
{"molecule": "CCN(C(=O)C1CCCC1)c1cc(-c2ccc(N3CCN(CC4CC4)CC3)nc2)cc(C(=O)NCc2c(C)cc(C)[nH]c2=O)c1C", "reported_endpoint": "10 μM relative fluorescence intensity", "reported_value": 335.61}
{"molecule": "CCN(C(=O)C1CCCC1)c1cc(-c2ccc(N3CCOCC3)cc2)cc(C(=O)NCc2c(C)cc(C)[nH]c2=O)c1C", "reported_endpoint": "10 μM relative fluorescence intensity", "reported_value": 339}
{"molecule": "CCN(C(=O)C1CCCC1)c1cc(-c2ccc(N3CCN(C(=O)OC(C)(C)C)CC3)nc2)cc(C(=O)NCc2c(C)cc(C)[nH]c2=O)c1C", "reported_endpoint": "10 μM relative fluorescence intensity", "reported_value": 364.77}
{"molecule": "CCN(C(=O)C1CCCC1)c1cc(-c2ccc(N3CCC(N)CC3)nc2)cc(C(=O)NCc2c(C)cc(C)[nH]c2=O)c1C", "reported_endpoint": "10 μM relative fluorescence intensity", "reported_value": 345.23}

I: CCN(C(=O)C1CCCC1)c1cc(-c2ccc(NS(=O)(=O)C3CC3)cc2)cc(C(=O)NCc2c(C)cc(C)[nH]c2=O)c1C
II: CCN(C(=O)C1CC2C=CC1C2)c1cc(-c2ccc(CN3CCOCC3)cc2)cc(C(=O)NCc2c(C)cc(C)[nH]c2=O)c1C (stereo not drawn)
// pick min by 10 μM relative fluorescence intensity: I , II // caller expects the label of the chosen entry II
(II: 171, I: 345.23)

###

target: PRC2 protein complex comprising EZH2(Y641F) (Homo sapiens (Human), UniProt Q15910, Y641F); test: EZH2(Y641F) TR-FRET enzymatic activity assay
Sequence (Q15910 whole entry Y641F, one chain of several): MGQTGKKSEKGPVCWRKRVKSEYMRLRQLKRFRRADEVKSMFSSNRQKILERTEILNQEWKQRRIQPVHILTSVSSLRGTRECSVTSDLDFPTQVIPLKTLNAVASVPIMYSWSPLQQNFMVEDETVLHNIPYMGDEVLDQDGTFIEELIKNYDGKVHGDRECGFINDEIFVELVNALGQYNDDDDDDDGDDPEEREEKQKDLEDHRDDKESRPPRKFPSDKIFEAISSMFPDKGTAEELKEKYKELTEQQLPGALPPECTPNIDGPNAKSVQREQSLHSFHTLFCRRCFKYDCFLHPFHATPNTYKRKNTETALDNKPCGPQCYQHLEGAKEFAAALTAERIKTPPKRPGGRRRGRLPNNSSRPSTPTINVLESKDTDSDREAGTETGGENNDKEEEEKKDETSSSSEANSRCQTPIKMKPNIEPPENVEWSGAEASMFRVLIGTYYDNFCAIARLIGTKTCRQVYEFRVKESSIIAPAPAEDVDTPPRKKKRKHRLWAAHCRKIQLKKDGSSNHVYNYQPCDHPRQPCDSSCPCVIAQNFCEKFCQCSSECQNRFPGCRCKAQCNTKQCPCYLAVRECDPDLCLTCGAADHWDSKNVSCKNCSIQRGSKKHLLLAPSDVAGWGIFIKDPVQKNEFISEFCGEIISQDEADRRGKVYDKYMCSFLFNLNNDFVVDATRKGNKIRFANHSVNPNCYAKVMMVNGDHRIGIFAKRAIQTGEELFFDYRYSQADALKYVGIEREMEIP
Sequence (Q6ZN18 whole entry partner, one chain of several): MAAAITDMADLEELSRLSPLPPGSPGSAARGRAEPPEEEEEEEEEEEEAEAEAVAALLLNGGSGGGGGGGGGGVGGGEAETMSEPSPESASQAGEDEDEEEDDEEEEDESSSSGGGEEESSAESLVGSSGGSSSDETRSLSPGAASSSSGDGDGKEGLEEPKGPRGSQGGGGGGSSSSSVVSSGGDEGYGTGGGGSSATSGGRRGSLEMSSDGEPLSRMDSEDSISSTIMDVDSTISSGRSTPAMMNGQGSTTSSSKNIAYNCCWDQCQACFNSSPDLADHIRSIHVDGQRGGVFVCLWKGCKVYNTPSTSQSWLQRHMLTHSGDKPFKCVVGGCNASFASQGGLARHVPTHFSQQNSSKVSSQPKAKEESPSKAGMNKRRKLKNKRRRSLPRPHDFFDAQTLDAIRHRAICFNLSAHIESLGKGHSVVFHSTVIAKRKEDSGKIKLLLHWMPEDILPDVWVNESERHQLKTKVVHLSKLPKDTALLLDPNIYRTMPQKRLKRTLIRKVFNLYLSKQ
reported_endpoint: IC50 (nM)

{"smi": "CCN(C(=O)C1CCCC1)c1cc(-c2ccc(OCCN3CCOCC3)cc2C)cc(C(=O)NCc2c(C)cc(C)[nH]c2=O)c1C", "IC50, nM": 103}

I: CCN(C(=O)C1CCCC1)c1cc(-c2ccc(CN3CCN(C(=O)OC(C)(C)C)CC3)cc2)cc(C(=O)NCc2c(C)cc(C)[nH]c2=O)c1C
II: CCN(C(=O)C1CC1)c1cc(-c2ccc(OCCN3CCOCC3)c(F)c2)cc(C(=O)NCc2c(C)cc(C)[nH]c2=O)c1C
Identify the entry with the larger IC50. Options: I and II // caller expects the label of the chosen entry I

###

target: UniProt Q15910; assay: E-cadherin promoter luciferase reporter gene primary screening in 293T cells; type: cell-based; settings: compound 10 μM, 293T cells treated for 24 hours, Dual-Glo luciferase
reported_endpoint: 10 μM relative fluorescence intensity

Some compounds with recorded 10 μM relative fluorescence intensity:
{"smi": "CCN(C(=O)C1CCCC1)c1cc(-c2ccc(OCCCN3CCOCC3)cc2F)cc(C(=O)NCc2c(C)cc(C)[nH]c2=O)c1C", "10 μM relative fluorescence intensity": 217.02}
{"smi": "CCN(C(=O)C1CCCC1)c1cc(-c2ccc(CN3CCNCC3)cc2)cc(C(=O)NCc2c(C)cc(C)[nH]c2=O)c1C", "10 μM relative fluorescence intensity": 228.14}

1: CCN(C(=O)C1CCCC1)c1cc(-c2ccc(OCCCN3CCOCC3)cc2C)cc(C(=O)NCc2c(C)cc(C)[nH]c2=O)c1C
2: CCN1CCN(c2ccc(-c3cc(C(=O)NCc4c(C)cc(C)[nH]c4=O)c(C)c(N(CC)C(=O)C4CCCC4)c3)cc2)CC1
// pick min by 10 μM relative fluorescence intensity: 1 , 2 // caller expects the label of the chosen entry 1
(1: 218.76, 2: 335.96)

###

target: EZH2 (Homo sapiens (Human), UniProt Q15910); test: E-cadherin promoter luciferase reporter gene primary screening in 293T cells; assay type: cell-based; details: compound 3 μM, 293T cells treated for 24 hours, Dual-Glo luciferase
reported_endpoint: 3 μM relative fluorescence intensity

Some compounds with recorded 3 μM relative fluorescence intensity:
{"compound": "CCN(C(=O)C1CCCC1)c1cc(-c2ccc(CC(=O)N3CCOCC3)cc2)cc(C(=O)NCc2c(C)cc(C)[nH]c2=O)c1C [Compound 22]", "reported_endpoint": "3 μM relative fluorescence intensity", "reported_value": 194}
{"compound": "CCN1CCN(Cc2ccc(-c3cc(C(=O)NCc4c(C)cc(C)[nH]c4=O)c(C)c(N(CC)C(=O)C4CCCC4)c3)cc2)CC1 [Compound 23]", "reported_endpoint": "3 μM relative fluorescence intensity", "reported_value": 346}
{"compound": "CCN(C(=O)C1CCCC1)c1cc(-c2ccc(C(=O)N3CCOCC3)cc2)cc(C(=O)NCc2c(C)cc(C)[nH]c2=O)c1C [Compound 20]", "reported_endpoint": "3 μM relative fluorescence intensity", "reported_value": 213}
{"compound": "CCN(C(=O)C1CCCC1)c1cc(-c2ccc(N3CCOCC3)cc2)cc(C(=O)NCc2c(C)cc(C)[nH]c2=O)c1C [Compound 21]", "reported_endpoint": "3 μM relative fluorescence intensity", "reported_value": 225}
{"compound": "CCN(C(=O)C1CCCC1)c1cc(-c2ccc(C#N)c(F)c2)cc(C(=O)NCc2c(C)cc(C)[nH]c2=O)c1C [Compound 19]", "reported_endpoint": "3 μM relative fluorescence intensity", "reported_value": 228}

a: CCN(C(=O)C1CCCC1)c1cc(-c2ccnc(N3CCN(C)CC3)c2)cc(C(=O)NCc2c(C)cc(C)[nH]c2=O)c1C [Compound 17]
b: CCN(C(=O)C1CC2C=CC1C2)c1cc(-c2ccc(CN3CCOCC3)cc2)cc(C(=O)NCc2c(C)cc(C)[nH]c2=O)c1C (centres unmarked) [Compound 60]
c: CCN(C(=O)C1CCCC1)c1cc(-c2ccc(N3CCN(C(C)C)CC3)nc2)cc(C(=O)NCc2c(C)cc(C)[nH]c2=O)c1C [Compound 18]
# ascending order, key=3 μM relative fluorescence intensity Respond with an ordered listing of the labels, as requested. b, a, c
(b: 140, a: 223, c: 356)
